Assay: Oral pharmacokinetics of 20(S)-Rh2 and 20(R)-Rh2 in rats (stereoselective LC-MS)
Format: in vivo, rat
Settings: Sprague-Dawley, rat, po; plasma analyte after i.g. 20(S)-Rh2 25 mg/kg, rats; read-out: MRT 0-t (converted)
Property label: MRT last (h)
API: value field is a number in h; no unit string.

What value of measured MRT last is listed for CC(C)=CCC[C@](C)(O)[C@H]1CC[C@]2(C)[C@@H]1[C@H](O)C[C@@H]1[C@@]3(C)CC[C@H](O)C(C)(C)[C@@H]3CC[C@]12C [20(S)-Ppd, 20(S)-protopanaxadiol] ? 9.05

---

Experiment: Oral pharmacokinetics of 20(S)-Rh2 and 20(R)-Rh2 in rats (stereoselective LC-MS)
Type: in vivo, rat
Settings: Sprague-Dawley, rat, in vivo, po, 25 mg/kg, after oral administration of the same epimer, rats
Attribute: Cmax

Compound	Cmax
CC(C)=CCC[C@@](C)(O)[C@H]1CC[C@]2(C)[C@@H]1[C@H](O)C[C@@H]1[C@@]3(C)CC[C@H](O[C@@H]4O[C@H](CO)[C@@H](O)[C@H](O)[C@H]4O)C(C)(C)[C@@H]3CC[C@]12C [20(R)-Rh2, 20(R)-ginsenoside Rh2]	≤ 50 nM

What value of measured Cmax is listed for CC(C)=CCC[C@](C)(O)[C@H]1CC[C@]2(C)[C@@H]1[C@H](O)C[C@@H]1[C@@]3(C)CC[C@H](O[C@@H]4O[C@H](CO)[C@@H](O)[C@H](O)[C@H]4O)C(C)(C)[C@@H]3CC[C@]12C [20(S)-Rh2, 20(S)-ginsenoside Rh2] ? ~1000 nM

---

System: P-gp
Assay: Effects of Rh2 epimers on oral pharmacokinetics of P-gp substrate digoxin in rats
Type: in vivo, rat
Details: Sprague-Dawley (SD), rat, plasma, po, digoxin 0.25 mg/kg i.g., control (no Rh2), read-out: MRT0–12 of digoxin
Property label: MRT last
Answer format reminder: number followed by unit.

What value of measured MRT last is listed for C[C@H]1O[C@@H](O[C@H]2[C@@H](O)C[C@H](O[C@H]3[C@@H](O)C[C@H](O[C@H]4CC[C@@]5(C)[C@H](CC[C@@H]6[C@@H]5C[C@@H](O)[C@]5(C)[C@@H](C7=CC(=O)OC7)CC[C@]65O)C4)O[C@@H]3C)O[C@@H]2C)C[C@H](O)[C@@H]1O [Digoxin] ? 1.7 h

---

Assay: Oral pharmacokinetics of 20(S)-Rh2 and 20(R)-Rh2 in rats (stereoselective LC-MS)
Type: in vivo, rat
Details: Sprague-Dawley, rat, in vivo, po, 25 mg/kg, plasma analyte after i.g. 20(R)-Rh2 25 mg/kg, rats
Method: To investigate the differences of pharmacokinetic characteristics between 20(S)-Rh2 and 20(R)-Rh2, rats were divided into 2 groups with five rats for each group. […] The 20(S)-Rh2, 20(R)-Rh2 and the deglycosylation metabolites 20(S)-Ppd and 20(R)-Ppd were quantified simultaneously by reversed-phase LC-MS. […] Quantification was performed using SIM mode with [M+Na]^+ peak: m/z 645.4 for Rh2; m/z 483.3 for Ppd; m/z 787.5 for digitoxin (internal standard). […]
Property label: Tmax (h)
API: value field is a number in h; no unit string.

Compound	Recorded number
CC(C)=CCC[C@](C)(O)[C@H]1CC[C@]2(C)[C@@H]1[C@H](O)C[C@@H]1[C@@]3(C)CC[C@H](O[C@@H]4O[C@H](CO)[C@@H](O)[C@H](O)[C@H]4O)C(C)(C)[C@@H]3CC[C@]12C [20(S)-Rh2, 20(S)-ginsenoside Rh2]	2.33

What value of measured Tmax is listed for CC(C)=CCC[C@@](C)(O)[C@H]1CC[C@]2(C)[C@@H]1[C@H](O)C[C@@H]1[C@@]3(C)CC[C@H](O[C@@H]4O[C@H](CO)[C@@H](O)[C@H](O)[C@H]4O)C(C)(C)[C@@H]3CC[C@]12C [20(R)-Rh2, 20(R)-ginsenoside Rh2] ? 4.75

---

Test: Oral pharmacokinetics of 20(S)-Rh2 and 20(R)-Rh2 in rats (stereoselective LC-MS)
Assay type: in vivo, rat
Settings: Sprague-Dawley, rat, in vivo, po, 25 mg/kg, plasma analyte after i.g. 20(R)-Rh2 25 mg/kg, rats
Attribute: Cmax
API: value field is a number in ng/mL; no unit string.

Compound	Recorded number
CC(C)=CCC[C@@](C)(O)[C@H]1CC[C@]2(C)[C@@H]1[C@H](O)C[C@@H]1[C@@]3(C)CC[C@H](O[C@@H]4O[C@H](CO)[C@@H](O)[C@H](O)[C@H]4O)C(C)(C)[C@@H]3CC[C@]12C [20(R)-Rh2, 20(R)-ginsenoside Rh2]	29

For the next question, use this compound.
What value of measured Cmax is listed for CC(C)=CCC[C@](C)(O)[C@H]1CC[C@]2(C)[C@@H]1[C@H](O)C[C@@H]1[C@@]3(C)CC[C@H](O[C@@H]4O[C@H](CO)[C@@H](O)[C@H](O)[C@H]4O)C(C)(C)[C@@H]3CC[C@]12C [20(S)-Rh2, 20(S)-ginsenoside Rh2] ? 5

---

System: P-gp
Test: Effects of Rh2 epimers on oral pharmacokinetics of P-gp substrate digoxin in rats
Assay type: in vivo, rat
Settings: Sprague-Dawley (SD), rat, plasma, po, digoxin 0.25 mg/kg i.g., control (no Rh2)
Property label: Cmax (nM)
API: value field is a number in nM; no unit string.

Notebook: pull reported Cmax for P-gp, entry C[C@H]1O[C@@H](O[C@H]2[C@@H](O)C[C@H](O[C@H]3[C@@H](O)C[C@H](O[C@H]4CC[C@@]5(C)[C@H](CC[C@@H]6[C@@H]5C[C@@H](O)[C@]5(C)[C@@H](C7=CC(=O)OC7)CC[C@]65O)C4)O[C@@H]3C)O[C@@H]2C)C[C@H](O)[C@@H]1O [Digoxin] 9.9

---

Experiment: Oral pharmacokinetics of 20(S)-Rh2 and 20(R)-Rh2 in rats (stereoselective LC-MS)
Format: in vivo, rat
Conditions: Sprague-Dawley, rat, po; plasma analyte after i.g. 20(S)-Rh2 25 mg/kg, rats
Property label: Tmax (h)
API: value field is a number in h; no unit string.

What value of measured Tmax is listed for CC(C)=CCC[C@](C)(O)[C@H]1CC[C@]2(C)[C@@H]1[C@H](O)C[C@@H]1[C@@]3(C)CC[C@H](O)C(C)(C)[C@@H]3CC[C@]12C [20(S)-Ppd, 20(S)-protopanaxadiol] ? 8.67

---

Experiment: Oral pharmacokinetics of 20(S)-Rh2 and 20(R)-Rh2 in rats (stereoselective LC-MS)
Type: in vivo, rat
Details: Sprague-Dawley, rat, in vivo, po, 25 mg/kg, plasma analyte after i.g. 20(S)-Rh2 25 mg/kg, rats; read-out: MRT 0-t (converted)
Property label: MRT last (h)
API: value field is a number in h; no unit string.

Compound	Value units	MRT last
CC(C)=CCC[C@](C)(O)[C@H]1CC[C@]2(C)[C@@H]1[C@H](O)C[C@@H]1[C@@]3(C)CC[C@H](O[C@@H]4O[C@H](CO)[C@@H](O)[C@H](O)[C@H]4O)C(C)(C)[C@@H]3CC[C@]12C [20(S)-Rh2, 20(S)-ginsenoside Rh2]	h	3.35

For the next question, use this compound.
What value of measured MRT last is listed for CC(C)=CCC[C@@](C)(O)[C@H]1CC[C@]2(C)[C@@H]1[C@H](O)C[C@@H]1[C@@]3(C)CC[C@H](O[C@@H]4O[C@H](CO)[C@@H](O)[C@H](O)[C@H]4O)C(C)(C)[C@@H]3CC[C@]12C [20(R)-Rh2, 20(R)-ginsenoside Rh2] ? 2.38

---

Attribute: Cmax
Assay: Oral pharmacokinetics of 20(S)-Rh2 and 20(R)-Rh2 in rats (stereoselective LC-MS)
Format: in vivo, rat
Settings: Sprague-Dawley, rat, in vivo, po, 25 mg/kg, plasma analyte after i.g. 20(S)-Rh2 25 mg/kg, rats

Compound	Cmax
CC(C)=CCC[C@](C)(O)[C@H]1CC[C@]2(C)[C@@H]1[C@H](O)C[C@@H]1[C@@]3(C)CC[C@H](O[C@@H]4O[C@H](CO)[C@@H](O)[C@H](O)[C@H]4O)C(C)(C)[C@@H]3CC[C@]12C [20(S)-Rh2, 20(S)-ginsenoside Rh2]	572 ng/mL

For the next question, use this compound.
What value of measured Cmax is listed for CC(C)=CCC[C@@](C)(O)[C@H]1CC[C@]2(C)[C@@H]1[C@H](O)C[C@@H]1[C@@]3(C)CC[C@H](O[C@@H]4O[C@H](CO)[C@@H](O)[C@H](O)[C@H]4O)C(C)(C)[C@@H]3CC[C@]12C [20(R)-Rh2, 20(R)-ginsenoside Rh2] ? 17 ng/mL
